Measured pKd, listed per entry.
- Tgt: T1, Full-length murine RIIα (murine, UniProt P12367 2-401)
- T1 construct: mature; given as full-length
- Method notes: fluorescence anisotropy, labeled peptide
Ends that are not written are not given here.
The meaning of pKd here: minus log10 of the concentration in molar units.

- Binder: "FEELAWKIAKMIWSDVFQQC(tetramethylrhodamine‑5‑maleimide)-NH2 (also called PV-38; RIα-specific (Q9F, V21W, M25F)) [AKB (RI), RI specific (SEQ ID NO:103) FEELAWKIAKMIWSDVFQQC, rhodamine-labeled]"
  pKd: 6.34

Now look at this entry.
Name the recorded pKd of the item VQGNTDEAQEELAWKIAKMIVSDVMQQC(tetramethylrhodamine‑5‑maleimide)-NH2 (also called unsubstituted peptide) [AKB (dual), WT (SEQ ID NO:108) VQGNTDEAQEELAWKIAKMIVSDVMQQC, rhodamine-labeled] in your answer.
8.66

All values here come from patent US20030232420A1.
